- system_name: FLuc-C-NLuc (firefly luciferase) (Photinus pyralis, UniProt P08659, form not given/L550V)
- Sequence (P08659 2-550 L550V, form open): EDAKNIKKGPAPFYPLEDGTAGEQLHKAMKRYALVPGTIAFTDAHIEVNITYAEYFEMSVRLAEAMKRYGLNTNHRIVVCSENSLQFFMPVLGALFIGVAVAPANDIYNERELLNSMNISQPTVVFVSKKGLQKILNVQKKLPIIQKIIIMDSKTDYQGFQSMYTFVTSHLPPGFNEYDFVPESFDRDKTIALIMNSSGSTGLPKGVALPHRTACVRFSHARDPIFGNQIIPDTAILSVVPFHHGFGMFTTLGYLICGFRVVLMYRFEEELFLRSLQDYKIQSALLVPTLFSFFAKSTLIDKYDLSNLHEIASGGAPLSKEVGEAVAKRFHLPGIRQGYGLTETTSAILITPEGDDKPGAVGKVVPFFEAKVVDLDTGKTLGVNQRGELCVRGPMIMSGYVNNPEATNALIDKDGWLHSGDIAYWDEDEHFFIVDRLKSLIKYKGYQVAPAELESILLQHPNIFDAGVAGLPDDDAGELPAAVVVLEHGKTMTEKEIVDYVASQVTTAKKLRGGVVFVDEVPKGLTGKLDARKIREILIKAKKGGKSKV
- experiment_description: SDR assay, FLuc-C-NLuc
- condition_set: 1 nM FLuc-C-NLuc; normalized activity; Log [Compound], M -4.96
Is SDR + 10 mM ATP at least 40? Then fulfilled. If not, not fulfilled.

>>> assigned_category("COc1ccc(-c2nc(-c3ccc(C(=O)O)cc3)no2)cc1 [compound 00168104]")
"fulfilled"
>>> assigned_category("CC(CNC(=O)C1CCN(C(=O)c2ncn3c2COC(c2ccccc2)C3)CC1)c1ccccc1 (centres unmarked) [compound 00449795]")
"not fulfilled"
>>> assigned_category("O=C(O)c1cccc2c1CCN2C(=O)Nc1ccc(F)cc1 [compound 00432687]")
"fulfilled"
>>> assigned_category("CC1CCCN(c2ncnc3c2cnn3-c2ccccc2)C1 (centres unmarked) [compound 00081381]")
"not fulfilled"
>>> assigned_category("Cc1ccc(-n2ncc3c(N4CCCCCC4)ncnc32)cc1 [compound 00139018]")
"not fulfilled"
>>> assigned_category("Fc1ccc(-c2cn3cc(Cc4ccccc4)sc3n2)cc1 [compound 00102110]")
"not fulfilled"
>>> assigned_category("CNC(=O)c1cccc2c1CCN2C(=O)Nc1ccc(C)cc1 [compound 00430160]")
"fulfilled"

The reported numbers originate from paper PMC12064818.
